assay: basal RPMI8226 viability, no added stimulus, profiling panel, cell-based, calcein-AM fluorescence, 48 h, PK04 Diversity Set (AID 1166);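 note: cells grown under basal conditions without added stimulus; test concentration not given here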
condition_context: RPMI8226 myeloma viability, higher = more signal
z-score by entry:
Simply state the number, no unit and no words.

Illustrative cases are given below, each with its answer.
| molecule | property_measured | obs_value |
| --- | --- | --- |
| COc1ccc(O[C@H]2C=C[C@@H](c3ccccc3)O[C@@H]2COC(=O)CCC(C)=NOCC[C@@H]2C=C[C@H](OC(C)=O)[C@@H](COC(C)=O)O2)cc1 | z-score | -0.112 |
| COCCCNC(=O)[C@@]1(C)c2ccccc2C(=O)N(Cc2ccc(OC(F)(F)F)cc2)[C@H]1c1ccc(CO)cc1 | z-score | 0.125 |
| C=COC[C@H]1CN2[C@@H](CC[C@@H](C)[C@@H]2c2ccc(Br)cc2)C(=O)O1 | z-score | -0.228 |

Here is another molecule to look at.
Name the reported z-score value associated with the molecule CC1(C)OCC(C(O)C2=CCCCC2=O)CO1 (centres undefined)
-0.999

====

measurement_target: Pro-neuregulin-1, membrane-bound isoform (Homo sapiens)
assay: NRG1 binders on small-molecule microarrays, primary screen, psychiatric disease protein project, biochemical, small-molecule microarray, fluorescence 635/667 (AID 1075);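 note: score combines 667 nm spot fluorescence with signal to noise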
condition_context: NRG1 binding, 635 nm fluorescence, higher = more signal
Is composite z-score at least -0.04? Then yes. If not, no.

Observe how each entry below is paired with its result.
| compound | category |
| --- | --- |
| O=C(CS)NCCCCCNC(=O)[C@H]1C[C@H]2C(=O)N3CCC[C@H]3C(=O)N2[C@H]1c1cccc(OCCO)c1 | yes |
| COC(=O)C1=CCC(c2cccc(Cl)c2)O1 (stereo unspecified) | yes |
| COc1ccc(COC(=O)NN=C2C[C@@H](O)[C@@H](O)[C@@H]3[C@@H]4C(=O)N(Cc5ccc6c(c5)OCO6)C(=O)[C@@H]4CC[C@@H]23)cc1 | no |
| Cc1ccc(F)cc1S(=O)(=O)N[C@@H]1CCN(Cc2ccc(CC(C)C)cc2)C1 | no |
| Cc1ccc(S(=O)(=O)N[C@@H]2COC(=O)[C@H](C)COC(=O)CC=C[C@H]2C)cc1 | yes |
| C[C@@H]1CCC2C(=O)N(Cc3ccccc3)C[C@@H](O)CN2[C@H]1c1ccc(Br)cc1 (stereo partly specified) | yes |
| CC(CCN1CCc2nc(-c3ccccc3)c(-c3ccccc3)cc2C1)=NOC[C@@H](C)[C@H](OCc1ccccc1)C(C)C | yes |
| CC(C)=CCCC(C)=CCON=C1[C@H]2CCn3c(=O)n(C)c(=O)n3[C@H]2[C@H](O)[C@@H]2O[C@H]12 | yes |

Could you tell me if the measured composite z-score of Cn1c(=O)n2n(c1=O)[C@H]1[C@H](O)[C@@H]3O[C@@H]3C(=NOC[C@@H](O)COCc3ccco3)[C@H]1CC2 reaches -0.04 or more?
no

Could you tell me if the measured composite z-score of O=C1CCCC=C1C(O)CCOCc1ccccc1 (stereo unspecified) reaches -0.04 or more?
no

Could you tell me if the measured composite z-score of O=C1[C@H]2[C@H]3[C@H](O)[C@H](O)CC(=NOCc4ccccc4)[C@@H]3CC[C@H]2C(=O)N1Cc1ccccc1 reaches -0.04 or more?
no

Could you tell me if the measured composite z-score of NC(=O)NCC#Cc1ccc2c(c1)[C@]1(C(=O)N2)[C@H](c2ccc(O)cc2)N2[C@H](c3ccccc3)[C@H](c3ccccc3)OC(=O)[C@H]2[C@@H]1C(=O)N1CCCCCCC1 reaches -0.04 or more?
yes

Could you tell me if the measured composite z-score of CC(C)OC(=O)C=C1C[C@@H](c2ccc(C#N)cc2)O[C@@H](c2ccc(C#N)cc2)O1 reaches -0.04 or more?
yes

Could you tell me if the measured composite z-score of CC(C)[Si]1(C(C)C)O[C@@H](c2ccccc2)c2cc(C3CC3)nc(-c3ccccc3)c21 reaches -0.04 or more?
no

Could you tell me if the measured composite z-score of CC(CCC(=O)OC[C@H]1O[C@H](C#Cc2ccccc2)C=C[C@@H]1Oc1ccc(C)cc1)=NOC[C@@H](O)[C@H]1O[C@@H]2OC(C)(C)O[C@@H]2[C@H]1O reaches -0.04 or more?
no
